From: patent US20240116985A1

# Assay target: Bcat-Halo (beta-catenin HaloTag construct expressed in HEK293 cells) (UniProt P35222)
# Sequence (P35222 whole entry): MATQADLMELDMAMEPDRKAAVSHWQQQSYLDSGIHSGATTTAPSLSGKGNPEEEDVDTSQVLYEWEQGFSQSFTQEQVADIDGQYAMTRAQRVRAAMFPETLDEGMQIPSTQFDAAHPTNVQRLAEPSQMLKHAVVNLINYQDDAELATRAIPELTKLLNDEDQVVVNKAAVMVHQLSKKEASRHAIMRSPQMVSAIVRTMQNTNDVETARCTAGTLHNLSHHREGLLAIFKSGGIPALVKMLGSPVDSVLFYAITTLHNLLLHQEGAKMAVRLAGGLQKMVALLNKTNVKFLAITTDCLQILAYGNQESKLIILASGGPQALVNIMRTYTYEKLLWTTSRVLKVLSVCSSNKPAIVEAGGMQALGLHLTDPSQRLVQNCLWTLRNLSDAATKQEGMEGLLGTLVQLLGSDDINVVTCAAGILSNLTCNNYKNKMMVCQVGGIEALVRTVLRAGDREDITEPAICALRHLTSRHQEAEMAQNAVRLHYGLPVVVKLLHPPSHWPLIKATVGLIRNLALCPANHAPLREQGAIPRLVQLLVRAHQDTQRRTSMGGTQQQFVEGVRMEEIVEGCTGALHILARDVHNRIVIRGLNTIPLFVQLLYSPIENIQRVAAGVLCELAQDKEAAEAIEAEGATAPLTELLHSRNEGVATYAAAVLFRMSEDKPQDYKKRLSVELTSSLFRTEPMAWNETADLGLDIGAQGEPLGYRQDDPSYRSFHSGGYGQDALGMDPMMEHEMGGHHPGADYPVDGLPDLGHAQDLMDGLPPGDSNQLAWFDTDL
# Protocol description: NanoBRET target engagement in HEK293 cells, absolute IC50; competitor TCF4-Luc
Starred links: 1 amine or outer side, 2 acyl side, 3 side chain; linkers in the order of their positions; H or OH if unused. Positions of bridges follow the written chain, without caps; N, C: chain ends. Non-standard residues stand in square brackets, D forms with d. Primed or numbered codes have the meaning given here. B5(4) = 2,2-bis(4-pentenyl)glycine = 2-amino-2-(pent-4-en-1-yl)hept-6-enoic acid (stitching residue), C=CCCCC(CCCC=C)(N[*:1])C(=O)[*:2]; TfeGA = (S)-2-amino-3-((carboxymethyl)(2,2,2-trifluoroethyl)amino)propanoic acid, O=C([C@H](CN(CC(=O)[*:3])CC(F)(F)F)N[*:1])[*:2]; PyrS2 = (S)-3-amino-1-((pent-4-en-1-yloxy)carbonyl)pyrrolidine-3-carboxylic acid, C=CCCCOC(=O)N1CC[C@@](N[*:1])(C(=O)[*:2])C1; PyrS2(5) = (S)-3-amino-1-((alkenyloxy)carbonyl)pyrrolidine-3-carboxylic acid, carbamate stapling residue; B5 = 2-amino-2-(pent-4-en-1-yl)hept-6-enoic acid, C=CCCCC(CCCC=C)(N[*:1])C(=O)[*:2]; Phe(3-COOH) = N[C@@H](Cc1cccc(C(=O)O)c1)C(=O)O; Phe(2-Cl) = N[C@@H](Cc1ccccc1Cl)C(=O)O; Bta = N[C@@H](Cc1csc2ccccc12)C(=O)O; αAllylPro = C=CC[C@@]1(C(=O)O)CCCN1; tBuAla = CC(C)(C)C[C@H](N)C(=O)O; Nle = CCCC[C@H](N)C(=O)O
Recorded metric: pIC50
In textbook form, pIC50 equals minus log to base ten of the concentration in mol/L.

Example entries and their recorded answers appear below.
binder="Ac-[αAllylPro]D[tBuAla][B5(4)]D[Phe(3-COOH)]AGFL[PyrS2(5)][Phe(2-Cl)][Bta]Q-NH2 (staple 1-4, 4-11) [I-1687]" recorded_metric=pIC50 obs_value=4.73
binder="Ac-[αAllylPro]D[tBuAla][B5]D[TfeGA]AGFT[PyrS2][Phe(2-Cl)][Bta]Q-NH2 (staple 1-4, 4-11) [I-1694]" recorded_metric=pIC50 obs_value=4.36

Entry Ac-[αAllylPro]D[tBuAla][B5]D[Phe(3-COOH)][Nle]GFL[PyrS2][Phe(2-Cl)][Bta]Q-NH2 (staple 1-4, 4-11) [I-1688] needs its pIC50 filled in; supply it. 4.67
